Recorded percent binding compared to human Ang-2 by entry
Target: human Ang-2 H375Q (human) (UniProt O15123)
Sequence (O15123 19-496, stated change not applied): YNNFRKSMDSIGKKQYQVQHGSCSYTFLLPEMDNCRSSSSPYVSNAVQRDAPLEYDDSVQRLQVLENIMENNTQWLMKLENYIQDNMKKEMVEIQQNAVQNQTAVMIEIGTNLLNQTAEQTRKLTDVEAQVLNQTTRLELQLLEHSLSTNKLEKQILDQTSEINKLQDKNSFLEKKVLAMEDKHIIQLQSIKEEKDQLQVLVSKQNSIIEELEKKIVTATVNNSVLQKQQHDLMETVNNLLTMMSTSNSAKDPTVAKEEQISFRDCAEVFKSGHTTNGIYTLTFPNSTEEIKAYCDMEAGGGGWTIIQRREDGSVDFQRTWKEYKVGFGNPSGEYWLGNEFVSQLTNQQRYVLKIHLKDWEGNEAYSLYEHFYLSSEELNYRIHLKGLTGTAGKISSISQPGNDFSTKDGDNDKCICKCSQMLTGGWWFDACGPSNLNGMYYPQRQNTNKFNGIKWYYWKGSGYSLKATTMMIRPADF
Test: ELISA
Expressed in %, but write only the number.

binder="mAb 5.39.1 (antibody, V domains shown) VH: QVQLVQSGAEVTKPGASVKVSCKASGYTFTAYHMYWVRQAPGQGLEWMGWINPNSGGTNYAQKFQGRVTMTRDTSISTAYMELSRLRSDDSPVYYCARDQGIAAAGPFDYWGQGTLVTVSS VL: EIVMTQSPATLSVSPGDRATLSCRASQSVSSNFAWYQQKPGQAPRLLIYGSSTRATGIPARFSGSGSGTEFTLTISSLQSEDFAVYYCQQYHYWWTFGQGTKVEFKR" value_unit=% measured=100

Exercise: What does the record list as percent binding compared to human Ang-2 for mAb 3.3.2 (antibody, V domains shown) VH: EVQLVESGGGLVQPGGSLRLSCAVSGFTFSSYWMSWVRQAPGKGLEWVANIKQDGSEKYYVDSVKGRFTISRDNAKNSLYLQMNSLRAEDTAVYYCARDQGIAVAGPFDYWGQGTLVTVSS VL: EIVMTQSPATLSVSPGERATLSCRASQTVSSDLAWYQQKPGQAPRLLIYGASIRATGIPARFSGSGSGTEFTLTISSLQSEDFAVYSCQQYYNWWTFGQGTKVEIKR ?
Key: 100

# credit: patent US20060246071A1
